Where do these numbers come from? They come from patent US4786638A.

Each entry below lists one item and its recorded inhibition at 10 µM value.
molecular target: aldose reductase (Bos taurus); construct: preparation of the enzyme from bovine lens; from tissue; host or cells: bovine lens; assay: In vitro aldose reductase inhibition (modified Hayman and Kinoshita procedure; enzyme from bovine lens); format: biochemical; conditions: read-out: % Inhibition IN VITRO 10^-5 M
Your answer should be a plain number; it is taken to be in %.

1. Cc1nc(NCCc2ccccc2)c(C#N)c(=O)n1CC(=O)O ... 89
2. Cc1nc(N2CCCCC2)c(C#N)c(=O)n1CC(=O)O ... 88
3. Cc1nc(NCc2cccnc2)c(C#N)c(=O)n1CC(=O)O ... 88

Note: attention shifts to another entry.
-- ask Look at this compound and give its reported inhibition at 10 µM. Cc1nc(N2CCN(Cc3ccccc3)CC2)c(C#N)c(=O)n1CC(=O)O
-- reply 92
